- Study target: biotinylated C3b (UniProt P01024)
- Assay protocol: SPR on immobilised C3b; ratio relative to peptide 14
Bridge positions count the residues as written; N and C are the ends. Square brackets hold non-standard residues; d marks the D form. Trp(1-Me) = Cn1cc(C[C@H](N)C(=O)O)c2ccccc21; Sar = CNCC(=O)O

Binder: Ac-ICV[Trp(1-Me)]QDW[Sar]AHRCI-NH2 (disulfide 2-12; SMILES CC[C@H](C)[C@H](NC(=O)[C@@H]1CSSC[C@H](NC(=O)[C@@H](NC(C)=O)[C@@H](C)CC)C(=O)N[C@@H](C(C)C)C(=O)N[C@@H](Cc2cn(C)c3ccccc23)C(=O)N[C@@H](CCC(N)=O)C(=O)N[C@@H](CC(=O)O)C(=O)N[C@@H](Cc2c[nH]c3ccccc23)C(=O)N(C)CC(=O)N[C@@H](C)C(=O)N[C@@H](Cc2c[nH]cn2)C(=O)N[C@@H](CCCNC(=N)N)C(=O)N1)C(N)=O, Sar^8, Ile^13; also called peptide 17; Ac-Ic[CV(1-MeW)QDW(N-MeG)AHRC]I-NH2) [Ac-Ile-c[Cys-Val-Trp(Me)-Gln-Asp-Trp-Sar-Ala-His-Arg-Cys]-Ile-NH2]
Unit tag: fold
rka: 1.5
--
Binder: Ac-ICV[Trp(1-Me)]QDWGAHRCI-NH2 (disulfide 2-12; SMILES CC[C@H](C)[C@H](NC(=O)[C@@H]1CSSC[C@H](NC(=O)[C@@H](NC(C)=O)[C@@H](C)CC)C(=O)N[C@@H](C(C)C)C(=O)N[C@@H](Cc2cn(C)c3ccccc23)C(=O)N[C@@H](CCC(N)=O)C(=O)N[C@@H](CC(=O)O)C(=O)N[C@@H](Cc2c[nH]c3ccccc23)C(=O)NCC(=O)N[C@@H](C)C(=O)N[C@@H](Cc2c[nH]cn2)C(=O)N[C@@H](CCCNC(=N)N)C(=O)N1)C(N)=O, Peptide 14 scaffold with Gly^8, Ile^13; also called 16 (6)) [peptide 16]
Unit tag: fold
rka: 1
--
Binder: Ac-ICV[Trp(1-Me)]QDW[Sar]AHRCL-NH2 (disulfide 2-12; SMILES CC[C@H](C)[C@H](NC(C)=O)C(=O)N[C@H]1CSSC[C@@H](C(=O)N[C@@H](CC(C)C)C(N)=O)NC(=O)[C@H](CCCNC(=N)N)NC(=O)[C@H](Cc2c[nH]cn2)NC(=O)[C@H](C)NC(=O)CN(C)C(=O)[C@H](Cc2c[nH]c3ccccc23)NC(=O)[C@H](CC(=O)O)NC(=O)[C@H](CCC(N)=O)NC(=O)[C@H](Cc2cn(C)c3ccccc23)NC(=O)[C@H](C(C)C)NC1=O) [Ac-Ic[CV(1-MeW)QDW(N-MeG)AHRC]L-NH2]
Unit tag: fold
rka: 1.3
